Each entry below lists one item and its recorded Plant response rating, Oat, Wild value.
- Test system: wild oat (Avena fatua)
- experimental protocol: Test B pre-/postemergence plant response
- Assay type: in vivo
- applied conditions: Postemergence, 250 g ai/ha; scale 0 to 100 (0 no effect, 100 complete control)
Answer with a bare number; do not write a unit.

Some compounds with recorded Plant response rating, Oat, Wild:
* O=C1CCCC(O)=C1C(=O)c1cnc(-c2ccccc2Br)n(-c2ccccc2)c1=O | 5
* Cc1ccccc1-c1ncc(C(=O)C2=C(O)CCCC2=O)c(=O)n1-c1ccccc1 | 10
* Cn1c(-c2ccccc2)ncc(C(=O)C2=C(O)CCCC2=O)c1=O | 5
* CC(C)CC(=O)OC1=C(C(=O)c2cnc(-c3ccccc3)n(-c3ccccc3)c2=O)C(=O)CCC1 | 10
* CCCCc1ncc(C(=O)C2=C(O)CCCC2=O)c(=O)n1-c1ccc(C)cc1 | 10

-- ask Recorded Plant response rating, Oat, Wild for CCCCn1c(-c2cc(F)cc(F)c2)ncc(C(=O)C2=C(O)CCCC2=O)c1=O , please?
-- reply 98

-- ask Recorded Plant response rating, Oat, Wild for CCCCn1c(-c2ccccc2)ncc(C(=O)C2=C(O)CCCC2=O)c1=O , please?
-- reply 80

###

Each entry below lists one item and its recorded Plant response rating, Guineagrass value.
- Test system: guineagrass (Panicum maximum)
- experimental protocol: Test D pre-/postemergence plant response
- Format: in vivo
- applied conditions: Postemergence, 125 g ai/ha; scale 0 to 100 (0 no effect, 100 complete control)
Answer with a bare number; do not write a unit.

-- ask Recorded Plant response rating, Guineagrass for O=C1CCCC(O)=C1C(=O)c1cnc(-c2ccccc2)n(CC2CCCO2)c1=O (stereo not shown) , please?
-- reply 20

-- ask Recorded Plant response rating, Guineagrass for COCCn1c(-c2cccc(C)c2)ncc(C(=O)C2=C(O)C3CCC(C3)C2=O)c1=O (stereo not shown) , please?
-- reply 50

-- ask Recorded Plant response rating, Guineagrass for COCCn1c(-c2ccsc2)ncc(C(=O)C2=C(O)C3CCC(C3)C2=O)c1=O (stereo not shown) , please?
-- reply 15

-- ask Recorded Plant response rating, Guineagrass for CCCCn1c(-c2cc(F)cc(F)c2)ncc(C(=O)C2=C(O)C3CCC(C3)C2=O)c1=O (stereo not shown) , please?
-- reply 75

###

- Test system: morningglory (Ipomoea coccinea)
- experimental protocol: Test B pre-/postemergence plant response
- Format: in vivo
- applied conditions: Preemergence, 62 g ai/ha; scale 0 to 100 (0 no effect, 100 complete control)
Each entry below lists one item and its recorded Plant response rating, Morningglory value.
Answer with a bare number; do not write a unit.

- Cc1cc(-n2c(-c3ccccc3)ncc(C(=O)C3=C(O)CCCC3=O)c2=O)ccc1F: 20
- Cc1ccccc1-n1c(-c2cccc(Cl)c2)ncc(C(=O)C2=C(O)CCCC2=O)c1=O: 0
- COc1ccc(-n2c(-c3ccccc3)ncc(C(=O)C3=C(O)CCCC3=O)c2=O)cc1OC: 0

Consider the record given below.
-- ask Recorded Plant response rating, Morningglory for Cc1c(Cl)cccc1-n1c(-c2ccccc2)ncc(C(=O)C2=C(O)CCCC2=O)c1=O , please?
-- reply 0

###

- Test system: goosegrass (Eleusine indica)
- experimental protocol: Test B pre-/postemergence plant response
- Format: in vivo
- applied conditions: Preemergence, 125 g ai/ha; scale 0 to 100, 0 no effect, 100 complete control
recorded metric: Plant response rating, Goosegrass
Answer with a bare number; do not write a unit.

Some compounds with recorded Plant response rating, Goosegrass:
* COCCn1c(-c2cc(F)cc(F)c2)ncc(C(=O)C2=C(O)CCCC2=O)c1=O | 100
* O=C1CCCC(O)=C1C(=O)c1cnc(-c2ccsc2)n(-c2ccccc2)c1=O | 95
* Cn1c(-c2ccccc2)ncc(C(=O)C2=C(O)CCCC2=O)c1=O | 98

Consider the record given below.
-- ask Recorded Plant response rating, Goosegrass for COc1ccc(-n2c(-c3ccccc3)ncc(C(=O)C3=C(O)CCCC3=O)c2=O)cc1OC , please?
-- reply 98

meta.source: patent US8952024B2
